Target: recombinant human GREM1 (hGREM1-His; C-terminal 10His tagged, R&D, #5190-GR) (human) (UniProt O60565)
Sequence (O60565 other isoform, or with tags, fused parts or gaps limits assumed, form in doubt): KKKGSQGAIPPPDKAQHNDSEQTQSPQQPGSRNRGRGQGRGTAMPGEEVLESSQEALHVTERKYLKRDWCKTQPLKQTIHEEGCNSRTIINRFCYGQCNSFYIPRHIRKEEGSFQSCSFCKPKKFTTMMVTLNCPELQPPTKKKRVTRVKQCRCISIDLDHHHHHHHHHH
Assay: BLI Octet, captured mAb, 100 nM GREM1
Binding Signal with 300 sec Association (nm): recorded values
Write down the numeric answer in nm and omit the unit.

| binder | unit.of.measurement | data.value |
| --- | --- | --- |
| H4H2889N (antibody, human IgG4, V domains shown) VH: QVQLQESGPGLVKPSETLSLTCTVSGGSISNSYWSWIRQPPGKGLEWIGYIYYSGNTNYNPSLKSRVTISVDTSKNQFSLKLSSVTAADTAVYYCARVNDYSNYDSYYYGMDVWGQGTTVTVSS VL: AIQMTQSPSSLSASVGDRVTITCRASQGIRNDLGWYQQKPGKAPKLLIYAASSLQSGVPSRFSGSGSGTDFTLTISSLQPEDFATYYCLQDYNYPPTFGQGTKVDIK | nm | 0.46 |

Proceed to the following item.
Consider the binder shown here: H4H2780N (antibody, human IgG4, V domains shown) VH: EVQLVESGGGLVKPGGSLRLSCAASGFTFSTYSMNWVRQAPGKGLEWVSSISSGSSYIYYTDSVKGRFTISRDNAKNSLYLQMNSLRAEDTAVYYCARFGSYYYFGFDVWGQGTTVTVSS VL: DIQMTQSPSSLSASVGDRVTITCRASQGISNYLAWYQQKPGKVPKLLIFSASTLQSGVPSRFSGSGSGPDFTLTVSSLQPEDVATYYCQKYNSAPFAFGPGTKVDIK What is its recorded Binding Signal with 300 sec Association (nm)?
0.58
